target desc: Metallo-beta-lactamase type 2 (Bacteria)
Sequence (C7C422 whole entry): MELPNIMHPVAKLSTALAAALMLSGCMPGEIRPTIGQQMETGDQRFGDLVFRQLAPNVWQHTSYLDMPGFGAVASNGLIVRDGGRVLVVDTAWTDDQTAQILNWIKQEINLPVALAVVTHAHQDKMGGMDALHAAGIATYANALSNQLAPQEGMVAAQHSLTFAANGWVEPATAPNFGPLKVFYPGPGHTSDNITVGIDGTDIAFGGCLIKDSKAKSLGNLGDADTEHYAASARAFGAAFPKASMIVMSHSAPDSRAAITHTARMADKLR
protocol notes: Inhibition of Metallo-beta-lactamase NDM-1 (unknown origin)
Recorded IC50, one value per entry.
measure: IC50 (nM)

>>> experimental_result("Cc1ccc(-c2ccc(S(=O)(=O)C3CNC3)c(S(N)(=O)=O)c2-c2nn[nH]n2)c2nc(N)[nH]c12")
0.04
>>> experimental_result("Nc1nc2c(-c3ccc(S(=O)(=O)C4CCNCC4)c(S(N)(=O)=O)c3-c3nn[nH]n3)cccc2s1")
0.12
>>> experimental_result("NS(=O)(=O)c1c(C(F)(F)F)ccc(-c2ccc(C3CCNCC3)cc2)c1-c1nn[nH]n1")
0.9

Origin of values: ChEMBL document CHEMBL6083247
